FYI, the data here is from patent US20240140944A1.

Biological target: human recombinant ENPP1 enzymes (Homo sapiens, UniProt P22413)
Construct: purchased R & D systems
Sequence (P22413 whole entry): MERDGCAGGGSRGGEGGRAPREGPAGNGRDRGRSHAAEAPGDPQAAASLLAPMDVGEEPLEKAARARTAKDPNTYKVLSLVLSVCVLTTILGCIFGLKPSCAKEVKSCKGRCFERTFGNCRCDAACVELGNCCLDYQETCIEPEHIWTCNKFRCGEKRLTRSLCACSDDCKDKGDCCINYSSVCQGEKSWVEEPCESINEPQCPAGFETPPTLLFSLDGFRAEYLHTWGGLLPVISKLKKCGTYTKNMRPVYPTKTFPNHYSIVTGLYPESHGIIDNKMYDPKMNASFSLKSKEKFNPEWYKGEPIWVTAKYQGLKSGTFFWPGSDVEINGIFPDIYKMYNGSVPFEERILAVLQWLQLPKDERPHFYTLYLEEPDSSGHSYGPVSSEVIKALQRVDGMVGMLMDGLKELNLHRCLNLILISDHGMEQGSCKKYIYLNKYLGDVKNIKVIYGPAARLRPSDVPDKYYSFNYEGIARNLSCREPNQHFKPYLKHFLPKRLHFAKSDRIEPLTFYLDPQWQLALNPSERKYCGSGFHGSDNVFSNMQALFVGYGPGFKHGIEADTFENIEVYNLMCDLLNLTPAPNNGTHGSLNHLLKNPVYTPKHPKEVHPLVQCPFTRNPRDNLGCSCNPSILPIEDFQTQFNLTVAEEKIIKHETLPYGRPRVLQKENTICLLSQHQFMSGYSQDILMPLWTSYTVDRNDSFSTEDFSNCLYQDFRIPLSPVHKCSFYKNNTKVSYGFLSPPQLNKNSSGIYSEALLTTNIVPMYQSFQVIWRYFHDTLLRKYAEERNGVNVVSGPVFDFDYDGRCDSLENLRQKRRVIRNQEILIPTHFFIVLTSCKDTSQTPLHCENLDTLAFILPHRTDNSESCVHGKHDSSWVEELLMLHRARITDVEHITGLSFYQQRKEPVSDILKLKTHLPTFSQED
Assay: ENPP1 Enzyme Assay with cGAMP Substrate (AMP-Glo)
Format: biochemical
Settings: human recombinant ENPP1 3 ng/reaction, cGAMP 5 μM, 37° C. 90 minutes, average of two or more tests; read-out: Enzymatic activity IC50
pIC50: −log10 of the molar value. Where a name gives a salt, the structure may show the parent alone.
pIC50 for assorted molecules

Below: 3 molecules and their reported pIC50.
# MOLECULE, pIC50
data = [
    ("Cl.NS(=O)(=O)N(Cc1ccc(-c2ccnc3[nH]c(=O)ccc23)c(F)c1)C1CC1 [Example 58, hydrochloride]", "> 6.00"),
    ("Cn1c(=O)ccc2c(-c3ccc(CN)cc3)ccnc21 [Example 29, hydrochloride]", "5.00 to 6.00"),
    ("NCc1cc(Nc2ccnc3[nH]c(=O)ccc23)ccc1F [Example 78, dihydrochloride]", "> 6.00"),
]

Now for a further molecule.
Ask: Item NCc1cccc(-c2ccnc3[nH]c(=O)ccc23)c1 [Example 7, hydrochloride] has what recorded pIC50?
Reply: > 6.00

====

Target: human recombinant ENPP1 enzymes (Homo sapiens, UniProt P22413)
Experiment: ENPP1 Enzyme Assay with cGAMP Substrate (AMP-Glo)
Settings: human recombinant ENPP1 3 ng/reaction, cGAMP 5 μM, 37° C. 90 minutes, average of two or more tests; read-out: Enzymatic activity IC50
pIC50: −log10 of the molar value. Counter-ions that a name gives are not always drawn.
QUANTITY_MEASURED: pIC50

Below: 5 molecules and their reported pIC50.
# MOLECULE, pIC50
rows = [
    ("NS(=O)(=O)NCCC1CCN(c2ccnc3[nH]c(=O)ccc23)CC1 [Example 125]", "> 6.00"),
    ("O=C1CCc2c(-c3ccc4c(c3)CNCC4)ccnc2N1 [Example 135, hydrochloride]", "< 5.00"),
    ("Nc1cccc(-c2ccnc3c2CCC(=O)N3)c1 [Example 131, hydrochloride]", "5.00 to 6.00"),
    ("NS(=O)(=O)Nc1cccc(-c2ccnc3c2CCC(=O)N3)c1 [Example 139]", "> 6.00"),
    ("CCN(Cc1ccc(-c2ccnc3[nH]c(=O)ccc23)c(F)c1)S(N)(=O)=O.Cl [Example 56, hydrochloride]", "> 6.00"),
]

Ask: Item NCc1cccc(-c2ccnc3c2CCC(=O)N3)c1 [Example 132, hydrochloride] has what recorded pIC50?
Reply: < 5.00

Ask: Item NS(=O)(=O)NCCc1ccc(F)c(Nc2ccnc3[nH]c(=O)ccc23)c1 [Example 95, dihydrochloride] has what recorded pIC50?
Reply: > 6.00

Ask: Item NCCC1CCN(c2ccnc3[nH]c(=O)ccc23)CC1 [Example 115, hydrochloride] has what recorded pIC50?
Reply: > 6.00

Ask: Item CC(C)(C)OC(=O)NCc1ccc(-c2ccnc3[nH]c(=O)ccc23)cc1 [Example 3] has what recorded pIC50?
Reply: 5.00 to 6.00

Ask: Item NS(=O)(=O)NCc1ccc(-c2ccnc3[nH]c(=O)ccc23)c(F)c1F [Example 43, hydrochloride] has what recorded pIC50?
Reply: > 6.00

====

Target: human recombinant ENPP1 enzymes (Homo sapiens, UniProt P22413)
Assay: ENPP1 Enzyme Assay with cGAMP Substrate (AMP-Glo)
Conditions: human recombinant ENPP1 3 ng/reaction, cGAMP 5 μM, 37° C. 90 minutes, average of two or more tests; read-out: Enzymatic activity IC50
Counter-ions that a name gives are not always drawn.
QUANTITY_MEASURED: IC50

Ask: Item CN(Cc1ccc(-c2ccnc3[nH]c(=O)ccc23)cc1)S(N)(=O)=O [Example 50, hydrochloride] has what recorded IC50?
Reply: < 1 µM
